Data provenance: BindingDB's records for PubMed 19295546

pIC50: −log10 of the molar value.
Quantity: pIC50

GET pIC50 where system = 3-phosphoinositide-dependent protein kinase 1 (PDPK1) (Homo sapiens) (UniProt O15530) and item = N#CCNC(=O)c1ccc(-c2ccnc(Nc3ccc(N4CCOCC4)cc3)n2)cc1 < 6.00

---

target: UniProtKB P42229; assay: Inhibition of STAT5 phosphorylation in human HEL cells by Western blot analysis
Sequence (P42229 whole entry): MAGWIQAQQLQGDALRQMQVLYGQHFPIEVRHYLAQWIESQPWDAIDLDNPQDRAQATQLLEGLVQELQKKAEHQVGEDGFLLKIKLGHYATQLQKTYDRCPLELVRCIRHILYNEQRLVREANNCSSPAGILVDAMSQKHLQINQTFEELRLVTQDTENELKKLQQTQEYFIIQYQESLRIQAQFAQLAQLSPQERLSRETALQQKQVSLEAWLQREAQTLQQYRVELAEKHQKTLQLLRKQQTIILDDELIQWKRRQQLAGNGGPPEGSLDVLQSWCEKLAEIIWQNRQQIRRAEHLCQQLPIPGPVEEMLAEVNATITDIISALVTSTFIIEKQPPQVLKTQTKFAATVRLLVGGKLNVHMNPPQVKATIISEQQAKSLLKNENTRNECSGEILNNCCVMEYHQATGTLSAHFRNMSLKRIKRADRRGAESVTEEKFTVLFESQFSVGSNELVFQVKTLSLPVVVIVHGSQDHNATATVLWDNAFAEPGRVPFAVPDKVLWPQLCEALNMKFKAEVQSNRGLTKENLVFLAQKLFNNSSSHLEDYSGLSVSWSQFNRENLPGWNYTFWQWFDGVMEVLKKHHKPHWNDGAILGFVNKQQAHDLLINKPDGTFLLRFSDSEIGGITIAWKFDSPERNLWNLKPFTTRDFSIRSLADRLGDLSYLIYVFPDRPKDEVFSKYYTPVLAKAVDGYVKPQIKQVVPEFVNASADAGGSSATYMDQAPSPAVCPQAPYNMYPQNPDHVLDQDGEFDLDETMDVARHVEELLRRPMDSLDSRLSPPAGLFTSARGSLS
Quantity: pIC50
The value called pIC50 is obtained by taking minus log10 of the concentration in mol/L.

Report measured pIC50; entry is N#CCNC(=O)c1ccc(-c2ccnc(Nc3ccc(N4CCOCC4)cc3)n2)cc1 6.40
